Entries and their IC50
Target: ETA (Oryctolagus cuniculus)
Sequence (A5A8K3 21-427): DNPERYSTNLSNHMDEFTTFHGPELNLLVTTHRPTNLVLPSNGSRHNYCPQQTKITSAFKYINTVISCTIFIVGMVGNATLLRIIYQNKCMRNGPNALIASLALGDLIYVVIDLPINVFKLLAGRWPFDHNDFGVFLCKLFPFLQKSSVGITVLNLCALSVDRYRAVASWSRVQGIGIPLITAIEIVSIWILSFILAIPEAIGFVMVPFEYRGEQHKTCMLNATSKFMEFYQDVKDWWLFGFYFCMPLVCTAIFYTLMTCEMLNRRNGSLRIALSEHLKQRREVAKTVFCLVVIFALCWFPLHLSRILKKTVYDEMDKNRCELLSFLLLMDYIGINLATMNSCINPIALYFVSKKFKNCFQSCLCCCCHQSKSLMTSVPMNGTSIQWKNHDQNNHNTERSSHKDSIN
Conditions: ERBA-A IC50, [125I]-ET-1, rabbit renal artery vascular smooth muscle cells
outcome-measure: IC50 (nM)

compound: CCCCOc1ccc(CC2=C(c3ccc4c(c3)OCO4)C(=O)OC2(O)c2ccc(OC)cc2)cc1 (stereo not shown) [Example 93]
reading-unit: nM
relation-sign: =
endpoint-result: 5.2

compound: COc1ccc(C2(O)OC(=O)C(c3ccc(F)c(F)c3)=C2Cc2ccccc2)cc1 (stereo not shown) [Example 143]
reading-unit: nM
relation-sign: =
endpoint-result: 1900

compound: COc1ccc(C2(O)OC(=O)C(c3ccc4c(c3)OCO4)=C2Cc2cccc(OC)c2OC)cc1 (stereo not shown) [Example 308]
reading-unit: nM
relation-sign: =
endpoint-result: 16

compound: CCOC(=O)COc1cc(CC2=C(c3ccc4c(c3)OCO4)C(=O)OC2(O)c2ccc(OC)cc2)cc(OC)c1OC (stereo not shown) [Example 363]
reading-unit: nM
relation-sign: <
endpoint-result: 2.5

====

target: human ETB receptor (Homo sapiens); construct: expressed in transfected cells; host or cells: CHO-K1 cells, pRc-CMW (so in the source) expression vector, electroporation; membranes used; assay: ERBA-B: [125I]-ET-1 binding, recombinant human ETB receptor expressed in CHO-K1 cells; settings: human cloned ETB receptor, read-out: ERBA-B IC50, human cloned receptor data
Sequence (P24530 27-442): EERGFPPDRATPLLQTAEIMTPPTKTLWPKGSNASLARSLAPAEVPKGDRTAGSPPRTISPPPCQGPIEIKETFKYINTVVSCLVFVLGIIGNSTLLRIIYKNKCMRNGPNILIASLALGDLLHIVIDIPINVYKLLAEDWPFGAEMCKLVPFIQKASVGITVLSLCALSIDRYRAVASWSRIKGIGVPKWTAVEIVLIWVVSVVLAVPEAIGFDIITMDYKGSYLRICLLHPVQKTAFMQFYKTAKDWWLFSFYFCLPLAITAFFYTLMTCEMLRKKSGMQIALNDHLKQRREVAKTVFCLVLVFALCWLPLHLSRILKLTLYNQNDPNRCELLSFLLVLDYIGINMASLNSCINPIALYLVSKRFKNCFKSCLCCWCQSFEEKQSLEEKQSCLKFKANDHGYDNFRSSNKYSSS
Please respond with YES when measured IC50 is strictly beneath 2000 nM, and with NO in all other cases.

compound: CCOC(=O)COc1cc(CC2=C(c3ccc4c(c3)OCO4)C(=O)OC2(O)c2ccc(OC)cc2)cc(OC)c1OC (stereo not shown)
target-system: human ETB receptor (Homo sapiens)
category: YES
--
compound: COc1ccc(C(=O)/C(Cc2ccccc2)=C(\C(=O)O)c2ccc3c(c2)OCO3)cc1C
target-system: human ETB receptor (Homo sapiens)
category: YES
--
compound: COc1ccc(C2(O)OC(=O)C(c3ccc(OC)cc3OC)=C2Cc2ccccc2)cc1 (stereo not shown)
target-system: human ETB receptor (Homo sapiens)
category: NO
--
compound: COc1ccc(C2(O)OC(=O)C(c3cc(OC)cc(OC)c3)=C2Cc2cc(Cl)cc(Cl)c2)cc1 (stereo not shown)
target-system: human ETB receptor (Homo sapiens)
category: NO
--
compound: CCCOc1cccc(C/C(C(=O)c2ccc(OC)cc2)=C(/C(=O)O)c2ccc3c(c2)OCO3)c1
target-system: human ETB receptor (Homo sapiens)
category: YES
--
compound: COc1ccc(C2(O)OC(=O)C(c3cc(OC)cc(OC)c3)=C2Cc2ccc(OC(C)C)c(OC)c2)cc1 (stereo not shown)
target-system: human ETB receptor (Homo sapiens)
category: YES
--
compound: COc1ccc(C2(O)OC(=O)C(c3ccc4c(c3)OCO4)=C2CC(c2ccccc2)C2CCCC2)cc1 (stereo not shown)
target-system: human ETB receptor (Homo sapiens)
category: YES

====

target: ETA (Oryctolagus cuniculus); settings: ERBA-A IC50, [125I]-ET-1, rabbit renal artery vascular smooth muscle cells
Entries and their IC50
outcome-measure: IC50

molecule: COC(=O)c1ccc(CC2=C(c3ccc4c(c3)OCO4)C(=O)OC2(O)c2ccc(OC)cc2)cc1 (stereo not shown)
endpoint-result: 16 nM

molecule: CCCCCCCCOc1ccc(CC2=C(c3cc(OC)cc(OC)c3)C(=O)OC2(O)c2ccc(OC)c(C)c2)cc1OC (stereo not shown)
endpoint-result: 240 nM

molecule: COc1ccc(C2(O)OC(=O)C(c3ccc4c(c3)OCO4)=C2Cc2cc(OC)c(OC)c(OC)c2)cc1C (stereo not shown)
endpoint-result: 0.5 nM

molecule: COc1ccc(C2(O)OC(=O)C(c3ccc4c(c3)OCO4)=C2Cc2ccc(Br)cc2)cc1 (stereo not shown)
endpoint-result: 71 nM

====

target: ETA (Oryctolagus cuniculus)
pIC50: −log10 of the molar value.
Tick label 1 if pIC50 is 7 or greater. Tick label 0 if pIC50 is less than 7.

molecule: COc1ccc(C(=O)/C(Cc2cc(OC)c(OC)c(OC)c2)=C(\C(=O)O)c2ccc3c(c2)OCO3)cc1
category: label 1
--
molecule: COc1ccc(C2(O)OC(=O)C(c3ccc4c(c3)OCO4)=C2Cc2cccnc2)cc1 (stereo not shown)
category: label 1
--
molecule: COc1ccc(C2(O)OC(=O)C(c3ccc4c(c3)OCO4)=C2Cc2ccccc2)cc1OC (stereo not shown)
category: label 0
--
molecule: COc1ccc(C2(O)OC(=O)C(c3cc(OC)cc(OC)c3)=C2Cc2ccc(OC(C)C)c(OC)c2)cc1 (stereo not shown)
category: label 1
--
molecule: COc1ccc(C2(O)OC(=O)C(c3ccc4c(c3)OCO4)=C2Cc2cc(OC)c(OC)c(OC)c2)cc1 (stereo not shown)
category: label 0
--
molecule: COC(=O)c1ccc(CC2=C(c3ccc4c(c3)OCO4)C(=O)OC2(O)c2ccc(OC)cc2)cc1 (stereo not shown)
category: label 1
--
molecule: COc1ccc(C2(O)OC(=O)C(c3cc(OC)cc(OC)c3)=C2Cc2cc(OC)c(OC)c(OC)c2)cc1 (stereo not shown)
category: label 1
--
molecule: COc1ccc(C2(O)OC(=O)C(c3cc(OC)cc(OC)c3)=C2Cc2cccc(C(F)(F)F)c2)cc1 (stereo not shown)
category: label 0
--
molecule: COc1ccc(C2(O)OC(=O)C(c3ccc4c(c3)OCO4)=C2Cc2ccc(N(C)C)cc2)cc1 (stereo not shown)
category: label 0
--
molecule: COc1ccc(C2(O)OC(=O)C(c3cc(OC)cc(OC)c3)=C2Cc2cccc(OC)c2)cc1 (stereo not shown)
category: label 1
--
molecule: COc1ccc(C2(O)OC(=O)C(c3ccc4c(c3)OCO4)=C2Cc2ccc(C)cc2)cc1 (stereo not shown)
category: label 0

====

Entries and their IC50
Biological target: ETA (Oryctolagus cuniculus, UniProt A5A8K3)
Sequence (A5A8K3 21-427): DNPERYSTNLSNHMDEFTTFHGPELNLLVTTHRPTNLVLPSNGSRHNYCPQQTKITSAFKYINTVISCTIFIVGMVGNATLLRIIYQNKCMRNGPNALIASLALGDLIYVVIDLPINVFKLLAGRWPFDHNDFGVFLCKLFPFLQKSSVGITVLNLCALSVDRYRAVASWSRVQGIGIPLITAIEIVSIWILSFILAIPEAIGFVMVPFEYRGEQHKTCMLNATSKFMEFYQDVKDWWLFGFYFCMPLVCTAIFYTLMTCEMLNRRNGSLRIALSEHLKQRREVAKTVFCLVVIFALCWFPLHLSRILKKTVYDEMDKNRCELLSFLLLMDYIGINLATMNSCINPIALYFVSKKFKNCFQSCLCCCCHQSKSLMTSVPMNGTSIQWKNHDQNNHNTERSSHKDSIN
Conditions: ERBA-A IC50, [125I]-ET-1, rabbit renal artery vascular smooth muscle cells
outcome-measure: IC50 (nM)

molecule: COc1ccc(C2(O)OC(=O)C(c3ccc(F)c(F)c3)=C2Cc2ccc(C(C)C)cc2)cc1 (stereo not shown) [Example 144]
endpoint-result: 290

molecule: COc1ccc(C2(O)OC(=O)C(c3cc(OC)cc(OC)c3)=C2CC2CCCCC2)cc1 (stereo not shown) [Example 275]
endpoint-result: 12

molecule: COc1ccc(C2(O)OC(=O)C(c3ccc4c(c3)OCO4)=C2Cc2cc(C)c(OC)cc2C)cc1 (stereo not shown) [Example 251]
endpoint-result: 6

molecule: O=C1OC(O)(c2ccc(Cl)cc2)C(Cc2ccccc2)=C1c1ccc(Cl)c(Cl)c1 (racemic) [Example 61]
endpoint-result: 11000

molecule: COc1ccc(C2(O)OC(=O)C(c3ccc4c(c3)OCO4)=C2Cc2ccccc2Oc2ccccc2)cc1 (stereo not shown) [Example 313]
endpoint-result: 99

molecule: COc1ccc(C2(O)OC(=O)C(c3ccc4c(c3)OCO4)=C2Cc2cc(C)c(OC(C)C)c(C)c2)cc1 (stereo not shown) [Example 297]
endpoint-result: 64

molecule: COc1ccc(C2=C(Cc3ccc(C(C)C)cc3)C(O)(c3ccc(Cl)cc3)OC2=O)cc1OC (racemic) [Example 70]
endpoint-result: 9300

The origin of these recorded values is patent US5691373A.
